- TARGET DESC: Caspase-7 (Homo sapiens)
- ASSAY NAME: Activation of caspase 7 activity in IGROV1 cells assessed as DEVD peptide hydrolysis at 5 uM after 24 hrs
- Type: cell-based
- TEST CONTEXT: IGROV-1
Active and inactive are the calls of the source. The calls are words filed in the database; no cut-off is given here.
ASSAY METRIC: Activity

[[record]]
smiles_code = "COc1cc2c(/C=C3/C(=O)Nc4ccc(F)cc43)c(Cl)[nH]c2cc1C"
assay_metric = "Activity"
reported = "Active"

[[record]]
smiles_code = "COc1cc2c(/C=C3/C(=O)Nc4c3ccc3ccccc43)c(Cl)n(C)c2cc1C"
assay_metric = "Activity"
reported = "Active"

[[record]]
smiles_code = "COc1cc2c(/C=C3/C(=O)Nc4ccc(Cl)cc43)c(Cl)n(Cc3ccc(Cl)cc3)c2cc1C"
assay_metric = "Activity"
reported = "Active"

[[record]]
smiles_code = "COc1cc2c(/C=C3/C(=O)Nc4ccccc43)c(Cl)n(C)c2cc1C"
assay_metric = "Activity"
reported = "Active"


API: the following record is the query input.
Report value: Activity, system: Caspase-7 (Homo sapiens), molecule: `COc1cc2c(/C=C3/C(=O)Nc4cccc(Cl)c43)c(Cl)n(Cc3ccc(Cl)cc3)c2cc1C`
Active
